- Tested on: NCI-H226
- measurement_description: NCI tumour cell line growth inhibition, 48 h
Calls of active or inactive are those of the source. No stated cut-off is given here; in the data, active = GI50 up to about 1.1 µM and inactive = higher.
measured_quantity: GI50

As a guide, the following entries are already answered.
CCN(CC)CCOC(=O)CCN1CC2CCC(CC2)C1    > 100 µM (inactive)
Cn1cnc([N+](=O)[O-])c1Sc1nc2ccccc2[nH]1    28.7 µM (inactive)
Cn1ncc2c(Nc3ccc(Cl)cc3)c3ccccc3nc21    17.3 µM (inactive)
CCOc1c(OC)cc(C2c3cc4c(c(OCC)c3CC3COC(=O)C32)OCO4)cc1OC (stereo not given)    6.84 µM (inactive)

Here is the next item to consider.
What does the data say about its GI50? Entry: CN(C)c1ccc(/C=C(/C(=O)O)c2csc(-c3nc(/C(=C\c4ccc(N(C)C)cc4)C(=O)O)cs3)n2)cc1 > 100 µM (inactive)

---

- System: UACC-62
- measurement_description: NCI tumour cell line growth inhibition, 48 h
Active and inactive are the calls of the source. Cut-off read from the data, not from the text of the source: active = GI50 up to about 1.1 µM and inactive = higher.
Let's look at some compounds and their measured GI50.

Worked cases, answers included:
CON(C)C(=O)C(C)N(Cc1ccccc1)Cc1ccccc1 (stereo not given)    66.2 µM (inactive)
COc1ccc(/C=C/C(=O)c2cccc(C(=O)/C=C/c3ccc(OC)c(OC)c3)n2)cc1OC    21.7 µM (inactive)
O=C(O)CCC(=O)Nc1ccc2c(c1)S(=O)(=O)N(CC(=O)O)C2=O    > 100 µM (inactive)
CCOC(=O)C1(Cc2c[nH]c3ccccc23)C(O)CCCN1C(C)=O (stereo not given)    > 100 µM (inactive)

Which value of GI50 has been reported for O=C(/C=C/c1ccccc1)Oc1cccc2cccnc12 in the records? 5.47 µM (inactive)

Moving on to Cc1ccc(-c2c(C#N)c(S)n(NS(=O)(=O)c3ccc(C)cc3)c(=O)c2C#N)cc1 28.5 µM (inactive)

---

- Tested on: XF498
- measurement_description: NCI tumour cell line growth inhibition, 48 h
Active and inactive are the calls of the source. Cut-off read from the data, not from the text of the source: active = GI50 up to about 1.1 µM and inactive = higher.
measured_quantity: GI50

C/C(=C\C(C[C@](C)(O)C(O)CCC#C[Si](C)(C)C)S(=O)(=O)c1ccccc1)CC/C=C/CO[Si](C)(C)C(C)(C)C (stereo partly specified)    13.2 µM (inactive)

Param item = CCCCCOc1ccc(/C=N\c2ccc(CCc3ccc(/N=C/c4ccc(OCCCCC)cc4)cc3)cc2)cc1 ; retrieve measured GI50. > 100 µM (inactive)

Also check C/C=C(\N=C=S)C(=O)OC1C(COC(C)=O)OC([C@]2(O)CC(=O)C(N)=C(C(=O)O)C2=O)C(O)C1OC1CC(OC)C(O)([C@@H](C)OC(=O)[C@@H](C)CC)C(C)O1 (stereo partly specified) 2.49 µM (inactive)

Moving on to the next molecule: COC(=O)c1nc(NN)cc(O)c1CCCCCc1c(O)nc(NN)nc1C(=O)OC > 100 µM (inactive)

Now try Cc1ccc(C)c(NC(=O)CC/C(=N\NC(=O)c2c(O)ccc3ccccc23)C(C)C(=O)c2ccc(O)cc2)c1 (stereo unspecified) . 44.3 µM (inactive)

Could you do the same for [O-][n+]1c(-c2ccccc2)oc2ccccc21 , please? 35.6 µM (inactive)

---

- Tested on: TK-10
- measurement_description: NCI tumour cell line growth inhibition, 48 h
Activity calls are given as the source filed them. Cut-off read from the data, not from the text of the source: active = GI50 up to about 1.1 µM and inactive = higher. Where a SMILES comes first, the peptide text is derived from it. [ ]: non-standard residue; d: D form. The star is where a group is joined. ξ: configuration not given here. Propanoyl(3-(4-MeO-Ph)) = COc1ccc(CCC(=O)*)cc1; Thr(3ξ) = CC(O)[C@H](N)C(=O)O; dNMeL = CN[C@H](CC(C)C)C(=O)O; OBn = c1ccc(CO*)cc1; ξLac = CC(O)C(=O)O
measured_quantity: GI50

Solved cases (5 shown):
O=C1c2ccccc2C(=O)c2oc(Br)cc21    2.9 µM (inactive)
CC(N)Cc1ccc(Cl)cc1 (stereo not given)    > 100 µM (inactive)
CCOC(=O)/C(=C\c1ccc(N(CCC#N)CCC#N)cc1C)NC(=O)/C=C/c1ccccc1    > 100 µM (inactive)
COc1ccc(CCC(=O)OC(C)[C@H](NC(=O)[C@@H](CC(C)C)N(C)C(=O)[C@@H]2CCCN2C(=O)C(C)O)C(=O)OCc2ccccc2)cc1 (stereo not given in full) (H-[ξLac]P[dNMeL][Thr(3ξ)](Propanoyl(3-(4-MeO-Ph)))-OBn)    18.9 µM (inactive)
COc1ccc2nc3c([N+](=O)[O-])ccc(NCCCN(C)C)c3c(N)c2c1    1.62 µM (inactive)

Entry Fc1cccc(C2SCC3=Nc4ccccc4CN32)c1 (stereo not given) : reported GI50 = ? 67.8 µM (inactive)

Next: COc1ccc(NC(=S)N/N=C\c2ccc(NC(C)=O)cc2)cc1 > 100 µM (inactive)

Try N#Cc1c(N)c2c(c(-c3ccccc3)c1-c1ccccc1)C(=O)N(O)C2=O next. 91.4 µM (inactive)

Input Cc1ccc(/N=C2\N=C(N3CC(C)OC(C)C3)c3ccccc32)cc1 (stereo not given) 34.2 µM (inactive)

For O=c1[nH]nc(NCCc2ccccc2)c2nnn(Cc3ccccc3)c12 then? > 100 µM (inactive)

---

- Tested on: DMS-273
- measurement_description: NCI tumour cell line growth inhibition, 48 h
Activity calls are given as the source filed them. No stated cut-off is given here; in the data, active = GI50 up to about 1.1 µM and inactive = higher.
Entries and their GI50 values follow.

Here are 5 compounds together with their reported answers.
CC12CO[C@@](C)(CC(S(=O)(=O)c3ccccc3)C1)O2 (stereo partly specified)    > 100 µM (inactive)
CN(CC(=O)O)S(=O)(=O)c1ccc2ccccc2c1    > 100 µM (inactive)
CSC[S+]([O-])C[C@H](CO)NC(=O)/C=C/c1c(C)[nH]c(=O)[nH]c1=O (stereo partly specified)    1.43 µM (inactive)
O=C1OCC/C1=N/O    > 100 µM (inactive)
CCOC(=O)C(=O)Nc1ccc(Cl)cc1C    > 100 µM (inactive)

--- query ---
What value of measured GI50 is listed for O=C(NCCCC/N=c1/cccccc1NCCCCNC(=O)OCc1ccccc1)OCc1ccccc1 ? 17.5 µM (inactive)

---

- Tested on: XF498
- measurement_description: NCI tumour cell line growth inhibition, 48 h
Activity calls are given as the source filed them. No stated cut-off is given here; in the data, active = GI50 up to about 1.1 µM and inactive = higher.
Classes to choose from: T for active, F for inactive

COC1/C=C\C=C(/C)C(=O)Nc2cc3nc4ccc(Br)cc4oc-3c(c2=O)CC(C)CC(OC)C(O)C(C)/C=C(\C)C1OC(N)=O (configuration not stated)    T
O=C(O)COc1ccc(C(=O)/C(SS/C(C(=O)c2ccc(OCC(=O)O)c(Cl)c2Cl)=C2\C=C(c3ccc(F)cc3)SS2)=C2/C=C(c3ccc(F)cc3)SS2)c(Cl)c1Cl    F
Nc1ccc2c(SCc3ccc([N+](=O)[O-])cc3)c3ccccc3nc2c1    F

I would be grateful if you could indicate the recorded call for Cc1cccc(C(C)C)c1NC(=O)C(=O)C(C(=O)c1ccccc1F)C1OC(=O)c2ccccc21 (configuration not stated) . F

Param item: C#C[C@]1(O)CCC2C3CCc4cc(Oc5nc(F)nc(-n6c(C)nc7cc8ccccc8cc76)n5)ccc4C3CCC21C (some centres not stated) F

Now the same for O=C(/C=C/c1ccccc1)Oc1cccc2cccnc12 F

Could you do the same for C[s+]1c2ccccc2c2ccccc21 , please? F

// same read-out, input: O=C1OC2C(O)COC2(O)C1(O)Cc1c[nH]c2ccccc12 (configuration not stated) F

---

- System: DU-145
- measurement_description: NCI tumour cell line growth inhibition, 48 h
The source made the active and inactive calls. Cut-off read from the data, not from the text of the source: active = GI50 up to about 1.1 µM and inactive = higher.
Field 'call' accepts active, inactive

Assay result, entry CCc1ccc(/C=C/C(=O)C2CN(CC)CCC2(O)/C=C/c2ccc(CC)cc2)cc1 (stereo not drawn) — outcome? inactive

Query C[C@H]1CC[C@@H]2[C@@H](C)[C@H]3[C@H](C[C@H]4[C@@H]5CC=C6C[C@@H](O)CC[C@]6(C)[C@H]5CC[C@]34C)N2C1 next inactive

Next up: O=C(Nc1ncc([N+](=O)[O-])s1)c1ccccc1O [TIZOXANIDE] inactive

Now give it for CCN(CC)c1ccc(/C=C/C2=NN(c3cccc(S(=O)(=O)O)c3)C3(C2)C(Cl)C(=O)N3c2nc3ccccc3s2)cc1 (stereo not drawn) too. inactive

What about N#CCCN(CCC#N)c1ccc(/C=C2\SC(=S)NC2=O)cc1 ? inactive

Again, but for C/C=C\C1OC1(C)c1cc(=O)c2c(C)cc3c(c2o1)C(=O)c1c(O)c(C2CC(C)(N(C)C)C(OC(C)=O)C(C)O2)cc(C2CC(N(C)C)C(O)C(C)O2)c1C3=O (stereo not drawn) active

For Cc1cnc(Cl)nc1C(C#N)c1nc2ccccc2n1C (stereo not drawn) then? inactive

# repeat for COc1ccc(/C=N/NC(=O)O)cc1 inactive

---

- System: ACHN
- measurement_description: NCI tumour cell line growth inhibition, 48 h
Calls of active or inactive are those of the source. Rule as the data show it: active = GI50 up to about 1.1 µM and inactive = higher.
Measured GI50, listed per entry for reference.

Example molecules with recorded GI50:
O=[N+]([O-])c1ccc(/C=C/c2cc(-c3ccccc3)nc3ccc4ccccc4c23)cc1    > 100 µM (inactive)
Cc1ccc(C)n1-c1ccccc1C1C=CN(C(=O)OC(C)(C)C)C=C1    32.6 µM (inactive)
CCOC(=O)COc1ccc(OC)c2c1C(=O)CCC2    > 100 µM (inactive)

What does the record list as GI50 for CCOC(=O)c1csc(NC(=O)CN2CCN(c3ccccc3)CC2)n1 ? > 100 µM (inactive)

Same question for CCOc1nc(-c2ccccc2)cc(-c2ccc(N3CCOCC3)cc2)c1C#N please. > 100 µM (inactive)

Would you kindly repeat that for Brc1ccc2c(c1)[C@H]1CCc3c([nH]c4ccccc34)[C@H]1N2 ? 12.5 µM (inactive)

Same thing, different molecule: Cc1ccc(NC(c2ccccc2)c2ccc3cccnc3c2O)cc1 (stereo unspecified) 3.67 µM (inactive)

# iterate: O=C(Cc1nc2ccccc2s1)NC12CC3CC(CC(C3)C1)C2 > 100 µM (inactive)
